The values you see were collected from PubChem BioAssay (NCI).

- TEST_DETAILS: NCI Yeast Anticancer Drug Screen. Data for the sgs1 mgt1 strain (AID 161);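 note: 0% = growth of cultures given vehicle only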
- MEASUREMENT_CONTEXT: S. cerevisiae sgs1 mgt1 strain, at 50.0 µM
This is part of a sample that, as a whole, favours compounds with a hit. Of some 79,000 tested, about 15% had one in any assay. The source made the active and inactive calls. Cut-off read from the data, not from the text of the source: active = growth inhibition above about 70%; inactive = the rest.
Classes used: true (active), false (inactive)

COMPOUND | ASSIGNED_LABEL
O=C(O)CSc1nnc2c3ccccc3c3ccccc3c2n1 | false
CC(C)(C)C1CCC(SCCO)CC1 (stereo not drawn) | true
CC(Br)Cc1ccc2c(c1)OCO2 (stereo not drawn) | false

====

List of growth inhibition values.
- TEST_DETAILS: NCI Yeast Anticancer Drug Screen. Data for the mec2-1 strain (AID 157)
- MEASUREMENT_CONTEXT: S. cerevisiae mec2-1 strain, at 5.0 µM (retest, dose inferred, filed as 0.5), active compounds read high
About 79,000 compounds went through this panel and 15% of them were active in at least one assay; those are over-represented in the sample as a whole.

MOLECULE | UNIT_INFO | growth inhibition
CCCCCCCCCCCCOC(=O)C[n+]1cccc(C(=O)Nc2ccccc2)c1 | % | 97
Cc1c(C(=O)N(CCO)CCO)[n+](=O)c2ccccc2n1[O-] | % | 13
COC(=O)C1=Cc2cc3c(cc2[C@H](c2ccc4c(c2)OCO4)C1C(=O)OC)OCO3 (stereo partly drawn) | % | -5

====

List of growth inhibition values.
- TEST_DETAILS: NCI Yeast Anticancer Drug Screen. Data for the mlh1 rad18 strain (AID 175)
- MEASUREMENT_CONTEXT: S. cerevisiae mlh1 rad18 strain growth inhibition; at 50.0 µM (retest, dose inferred, filed as 5.0); active compounds read high
Compounds without any hit were thinned out: in the full panel of roughly 79,000, 15% have a hit.
ASSAY_READOUT: growth inhibition (%)

MOLECULE | VAL
CCN(CC)CC(O)c1c(-c2ccccc2)c(-c2ccccc2)c2n1CCC2 (stereo unspecified) | 92
CCOC(=O)c1nnc2cc(-c3ccccc3)nn2c1-c1ccccc1 | 90
CSc1nc(C)c(C(=O)CCN2CCOCC2)s1 | 88
Cc1[nH]c2ccccc2c1-c1ccccc1 | 98
N=Cc1cc([N+](=O)[O-])ccc1O | 98
CNC(=S)/N=c1/sc([N+](=O)[O-])c(C)n1C | -12
COc1ccc(C2=C(Cl)C(=O)N(c3ccc(Cl)cc3)C(=O)C2(Cl)Cl)cc1 | 94
CCCCCN(CCC)CCCCCCCCCN1CCCc2cc(OC)ccc21 | -5
O=C(Nc1ccccc1O)/C(Cl)=C/Cl | 96
CC1Cc2cc(O)c(O)cc2-c2cc(O)c(O)cc2CC1C (stereo unspecified) | 93
CCCCNc1ccc(-c2c(N)nc(N)nc2CC)cc1[N+](=O)[O-] | -16
CCN(CC)CCNc1c(O)cc(C)c2sc3ccccc3c(=O)c12 | 96
CCCCCCC(OCCC)OCCC | -1
c1ccc(-c2nc3nc4ccccc4nc3nc2-c2ccccn2)nc1 | 98
O=C1OC(C2OC(=O)C(=O)C2C(=O)c2ccc(Cl)c(Cl)c2)C(C(=O)c2ccc(Cl)c(Cl)c2)C1=O (stereo unspecified) | 98
CCOC(=O)C(=C=C=C(c1ccccc1)c1ccccc1)C(=O)OCC | 6
O=[N+]([O-])c1ccc(O)c(/C=N\NC(=S)Nc2ccc3cn[nH]c3c2)c1 | 41
Cc1ccc(S(=O)(=O)/C=C/C(=O)c2ccc3ccccc3c2)cc1 | 95
OCCN=Cc1cccs1 | 5
O=c1[nH]c2cc(Cl)ccc2nc1/C=C(\O)c1ccccn1 | 82
COc1cc(C(c2cc3c(cc2O)OCO3)N2CCOCC2)ccc1O (stereo unspecified) | 34
COc1ccc(C2Cc3cc(OC)ccc3C2=O)cc1 (stereo unspecified) | 97
CCOC(=O)/C(Cl)=C(\C)Nc1nc2c(ccc3ccccc32)s1 | 21
c1cnc2c(Oc3nc(Oc4cccc5cccnc45)nc(Oc4cccc5cccnc45)n3)cccc2c1 | 94
COc1ccc(C2Oc3ccc(Cl)cc3C=C2[N+](=O)[O-])cc1OC (stereo unspecified) | 97
CC(=O)c1cccc(NC2C(N)C(NC(=O)N(C)C)(C(C)O)C(C)(O)C2(O)COC(=O)c2c(C)cccc2O)c1 (stereo unspecified) | 97
Oc1c(Cl)ccc2cccnc12 | 98
CCN1CCC(O)(/C=C/c2ccc(Cl)c(Cl)c2)C(C(=O)/C=C/c2ccc(Cl)c(Cl)c2)C1 (stereo unspecified) | 97
N#Cc1c(-c2ccc(Cl)cc2)c(-c2ccc(Cl)cc2)nn(CCOC(=O)CN)c1=O | 97
COc1cccc(NC(=S)NC2CC(C)CC(C)(C)C2)c1 (stereo unspecified) | 93
O=S1(=O)C=C(c2ccccc2)S(=O)(=O)C=C1c1ccccc1 | 85
O=[N+]([O-])/C(C(Cl)=C(Cl)Cl)=C(/Sc1ccccc1)N1CCCCC1 | 96
CC(C)(C)CC(C)(C)c1ccc(O)c(Cl)c1 | 95
O=C(Nc1cccc2ccccc12)OCCCCCCl | 93
Clc1ccc(SCCN2CCN(CCSc3ccc(Cl)cc3)CC2)cc1 | 99
O=C1C(Cl)C(c2cc(Br)cc(Br)c2O)N1n1cnc2ccccc2c1=O (stereo unspecified) | 98
